Quick list: viability per entry.
- EXPERIMENT DESCRIPTION: SK-BR-3 cell growth inhibitors, pilot screen, 24 h, human (AID 572);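 also: compound exposure lasted between 18 and 24 h rather than exactly 24 h; 100% = carrier-treated control wells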
- ASSAY CONDITIONS: SK-BR-3 viability, CellTiter-Glo luminescence, at 10 µM, stronger effect = lower value
Just the number please, in %, no unit attached.

Cc1cnn(Cc2ccccc2)c1N    115
NS(=O)(=O)c1ccc(NCc2c(F)cccc2Cl)cc1    100
COc1ccc(N=c2scc(-c3ccc(S(=O)(=O)N4CCOCC4)cc3)n2CCCO)cc1    85.5

viability for COc1ccc(/C(O)=C2/C(=O)C(=O)N(CCN(C)C)C2c2ccccn2)cc1OC (stereo unspecified) is 92.5

* * *

- ASSAYED SYSTEM: Receptor tyrosine-protein kinase erbB-2 (Homo sapiens) (UniProt P04626)
- Sequence (P04626 whole entry, looked up): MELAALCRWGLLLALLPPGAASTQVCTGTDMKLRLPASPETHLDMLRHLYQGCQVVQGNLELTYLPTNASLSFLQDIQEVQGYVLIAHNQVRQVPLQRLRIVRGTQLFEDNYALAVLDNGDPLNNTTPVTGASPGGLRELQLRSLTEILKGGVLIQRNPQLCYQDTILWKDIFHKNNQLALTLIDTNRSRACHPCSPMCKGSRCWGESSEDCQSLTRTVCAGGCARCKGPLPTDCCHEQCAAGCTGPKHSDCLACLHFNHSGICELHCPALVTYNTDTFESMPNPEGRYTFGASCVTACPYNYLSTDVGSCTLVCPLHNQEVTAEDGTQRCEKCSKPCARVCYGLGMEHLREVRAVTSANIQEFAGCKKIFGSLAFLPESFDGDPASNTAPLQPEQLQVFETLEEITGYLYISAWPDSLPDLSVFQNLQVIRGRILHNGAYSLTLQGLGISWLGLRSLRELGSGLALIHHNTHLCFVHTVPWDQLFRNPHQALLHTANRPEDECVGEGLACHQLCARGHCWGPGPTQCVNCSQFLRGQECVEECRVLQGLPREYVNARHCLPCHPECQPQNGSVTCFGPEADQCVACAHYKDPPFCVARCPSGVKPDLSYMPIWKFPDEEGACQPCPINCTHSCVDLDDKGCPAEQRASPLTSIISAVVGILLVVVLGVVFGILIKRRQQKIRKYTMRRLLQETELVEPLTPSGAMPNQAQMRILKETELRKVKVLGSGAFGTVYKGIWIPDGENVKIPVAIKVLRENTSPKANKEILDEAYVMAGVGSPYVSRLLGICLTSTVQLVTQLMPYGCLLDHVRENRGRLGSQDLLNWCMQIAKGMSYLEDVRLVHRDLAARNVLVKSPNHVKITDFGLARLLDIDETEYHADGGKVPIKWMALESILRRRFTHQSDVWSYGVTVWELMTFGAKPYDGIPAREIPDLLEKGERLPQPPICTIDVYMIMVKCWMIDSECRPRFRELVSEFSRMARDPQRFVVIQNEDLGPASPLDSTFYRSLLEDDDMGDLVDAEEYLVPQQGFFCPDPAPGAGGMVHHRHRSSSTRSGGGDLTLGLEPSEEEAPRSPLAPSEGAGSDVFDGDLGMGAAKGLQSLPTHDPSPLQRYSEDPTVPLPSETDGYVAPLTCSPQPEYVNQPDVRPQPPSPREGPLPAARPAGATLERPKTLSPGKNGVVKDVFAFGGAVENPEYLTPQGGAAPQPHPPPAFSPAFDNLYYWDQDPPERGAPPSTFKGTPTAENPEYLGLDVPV
- EXPERIMENT DESCRIPTION: reducers of endogenous Her2 protein level, primary screen, SKBR3 breast tumor cells, AlphaScreen, ATP viability (AID 461);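 also: lower value means less Her2 protein in the cells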
- ASSAY CONDITIONS: 18-24 h, at 10 µM, stronger effect = lower value
Quick list: Her2 level per entry.
Just the number please, in %, no unit attached.

CCCCN(Cc1cc2cc(OC)ccc2[nH]c1=O)C(=O)COc1ccccc1    79
Nc1nc(C2C(=O)CCCC2=O)cs1    99.5

Her2 level for CC(=O)NC(Cc1cc(C)ccc1C)C(=O)N1CCN(C(=O)Nc2ccc(C(C)=O)cc2)CC1 (centres undefined) is 101

Her2 level for Cc1ccc2c(c1)-c1cc(C)nn1C(c1ccc3c(c1)OCO3)N2 (centres undefined) is 100

Her2 level for `COc1ccc(Cl)cc1NC(=O)c1oc(C)nc1C` is 71.5

Her2 level for `COCCn1c(C)cc(C(=O)CSc2nc3ccccc3c(=O)[nH]2)c1C` is 67

Her2 level for `Fc1cc(F)c(F)c(SCCc2ccncc2)c1F` is 81.5

Her2 level for O=C(Nc1ccc(Cl)cc1)C1CC=CCC1C(=O)OCC(F)(F)C(F)F (centres undefined) is 92.5

Her2 level for `COC(=O)c1c(-c2cccs2)csc1NC(=O)CN1CCOCC1` is 98.5

Her2 level for `Cc1cc(C)c2c(N)c(C(=O)N3CCN(c4ncccn4)CC3)sc2n1` is 96.5

* * *

- EXPERIMENT DESCRIPTION: reversal of MRP1-mediated doxorubicin resistance, pilot screen, H69AR cells, doxorubicin co-treatment (AID 601)
- ASSAY CONDITIONS: H69AR cells + 2 uM doxorubicin, CellTiter-Glo, 72 h; at 10 µM; stronger effect = higher value
Quick list: differential viability (reversal) per entry.
Just the number please, in %, no unit attached.

A selection of reference data follows.
COc1ccc(Cl)c(NCCC(=O)O)c1    7.1
Cn1c(=O)[nH]c(=O)c2[nH]c(CN3CCN(C(=O)c4ccco4)CC3)nc21    13.8
CCSc1nnc(NC(=O)C(CC)(C(F)(F)F)C(F)(F)F)s1    0.58
COc1cc(C(=O)N2CCC(NC(=O)C(Cc3ccc(C)cc3)NC(C)=O)CC2)cc(OC)c1OC (stereo not given)    7.71
C=CCn1c(N)c(C(=O)NCCC2=CCCCC2)sc1=S    7.14
Cn1c(=O)oc2cc(S(=O)(=O)N3CCC(C(=O)Nc4ccc(OC(F)(F)F)cc4)CC3)ccc21    -4.57
CCOC(=O)CC(=O)Nc1c(C)cc(C)cc1C    10.3
COc1ccc(C2C(=O)N(C3CCCCC3)CC(=O)N2Cc2ccco2)cc1 (stereo not given)    18.2

differential viability (reversal) for `Cc1nc2c(C(=O)O)cnn2c(C)c1Cc1ccccc1F` is 2.52

differential viability (reversal) for `CC(C)CNC(=O)c1c(N)n(/N=C/c2ccccn2)c2nc3ccccc3nc12` is 2.92

differential viability (reversal) for CC1=C(C(=O)NCc2ccccc2)C(c2ccccc2OCC(N)=O)NC(=O)N1 (stereo not given) is 15.9

differential viability (reversal) for `COC(=O)Cc1c(C)nc2nc(-c3ccco3)[nH]n2c1=O` is 8.05

differential viability (reversal) for `CCOC(=O)c1ccc(NC(=O)COc2ccc(-n3cnnn3)cc2)cc1` is 1.81

differential viability (reversal) for CCOC(=O)C1CCCN(C(=O)c2ccc(CS(=O)(=O)Cc3ccccc3C)o2)C1 (stereo not given) is 9.89

differential viability (reversal) for COCCOC(=O)C1=C(C)Nc2ncnn2C1c1ccc(F)cc1 (stereo not given) is 3.85

differential viability (reversal) for `Cc1ccc(OC(=O)CCC(=O)OCCCC(F)(F)C(F)(F)F)cc1` is 3.79

differential viability (reversal) for `Cc1cc(C)c2c(N)c(C(=O)N3CCN(c4ncccn4)CC3)sc2n1` is 0.855

differential viability (reversal) for `CC1(C)Cc2noc(N)c2C(C)(C)N1OC(=O)c1ccco1` is 2.83

differential viability (reversal) for `Cc1ccc(C)c(N2CCN(C(=O)CCCn3c(=S)[nH]c4cc5c(cc4c3=O)OCO5)CC2)c1` is 4.74

differential viability (reversal) for `CCOC(=O)C1CCN(C(=O)COc2ccc(Cl)cc2Cl)CC1` is 10.2

differential viability (reversal) for `COc1cc(-c2nc(-c3cccc(C(F)(F)F)c3)no2)cc(OC)c1OC` is 10.7

differential viability (reversal) for `FC(F)Oc1ccc(-c2csc(Cc3nnc4n3CCCCC4)n2)cc1` is 5.74

differential viability (reversal) for `CN(Cc1ccccc1)C(=O)c1ccc2c(c1)OCO2` is 17.7

differential viability (reversal) for `CCOC(=O)C1=C(C)NC(C)=C(C(=O)OCC)C1c1cc(N)ccc1OC(F)F` is 4.41

differential viability (reversal) for `NC(=O)c1c(NC(=O)CN2CCCC2)sc2c1CCCC2` is 4.73

differential viability (reversal) for `CCOC(=O)CSc1cn2c(n1)CCC2` is -2.28

differential viability (reversal) for COc1ccc(N2CCN(C(=O)C(OC(C)=O)c3ccccc3)CC2)cc1 (stereo not given) is 2.1

differential viability (reversal) for `COc1ccc2nc3oc(C(=O)NC4CCN(Cc5ccccc5)CC4)cc3cc2c1` is 1.69

differential viability (reversal) for `Cc1ccc(-c2nn(C)c(=O)c3ccccc23)cc1S(=O)(=O)N1CCOCC1` is 16

* * *

- EXPERIMENT DESCRIPTION: HUVEC growth inhibition – cell-based, human, primary screen (AID 575);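 also: 100% = median of untreated cell wells with 0.1% DMSO on each plate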
- ASSAY CONDITIONS: HUVEC proliferation, CellTiter-Glo luminescence, 72 h; at 10 µM; stronger effect = lower value
Quick list: viability per entry.
Just the number please, in %, no unit attached.

A selection of reference data follows.
O=S(=O)(NCCc1ccccc1F)c1cccc(S(=O)(=O)N2CCOCC2)c1    96.8
CCN(CC)S(=O)(=O)c1cccc(-c2nnc(SCC(N)=O)n2CCc2ccccc2)c1    91
C/C(=N\O)C(C)/[N+]([O-])=C/c1nc(C)c(C)n1O (stereo not drawn)    97
C=C(C)Cn1c(SCC)nc2ccccc2c1=O    104
O=c1c2cc(Cl)ccc2[nH]c(=S)n1Cc1ccco1    93.6
Cc1nc(NC2=NCN(CC3CCCO3)CN2)nc2ccccc12 (stereo not drawn)    86.2
O=C(CSc1nnc(-c2ccco2)c(-c2ccco2)n1)Nc1ccccc1    89.2
O=C(NCc1cccnc1)c1ccccn1    103

viability for Cc1ccc2c(c1)NC(=O)C(CC(=O)NCCN(CC(C)C)CC(C)C)O2 (stereo not drawn) is 87.3

viability for `O=c1[nH]c2ccccc2nc1NCCN1CCOCC1` is 114

viability for CC(C)COC(=O)C1[C@H]2C(=O)N(Cc3cccs3)C[C@]23C=C[C@H]1O3 (stereo partly drawn) is 110

* * *

- EXPERIMENT DESCRIPTION: reversal of MRP1-mediated doxorubicin resistance, pilot screen, H69AR cells, doxorubicin co-treatment (AID 601)
- ASSAY CONDITIONS: H69AR cells + 2 uM doxorubicin, CellTiter-Glo, 72 h; measured here: viability with 2 uM doxorubicin; at 10 µM; stronger effect = lower value
Quick list: viability per entry.
Just the number please, in %, no unit attached.

CCSc1nnc(NC(=O)CSc2ncccn2)s1    84.5
N#Cc1nc(COc2ccc(Br)cc2)oc1N1CCCC1    86.7
CCOC(=O)C1CCN(C(c2cc3cc(C)cc(C)c3[nH]c2=O)c2nnnn2C2CCCCC2)CC1 (stereo not given)    57.2

viability for `CC1(C)Cc2noc(N)c2C(C)(C)N1O` is 80.8

viability for `CCn1c(=O)n(CC(=O)N(C)Cc2ccccc2)c(=O)c2ccccc21` is 90.8

viability for `CC1CCN(S(=O)(=O)c2ccc(NC(=O)CSc3nnnn3C)cc2)CC1` is 78.7

viability for CC(Oc1ccccc1)C(=O)N1CCCc2ccccc21 (stereo not given) is 89.8

viability for `Cc1cc(C)c2c(n1)nn1c(N3CCN(c4cccc(Cl)c4)CC3)cc(C)nc21` is 16.7

viability for COc1ccc(C2CC(=O)C(C=NCCN3CCOCC3)=C(O)C2)cc1 (stereo not given) is 95.8

viability for `C=CCn1c(SCC(=O)NCCCC)nc2scc(-c3ccco3)c2c1=O` is 86.7

viability for `COc1ccc(CNc2nc(SCC(=O)NCc3ccco3)nc3ccccc23)cc1` is 76.7
